system: Decarboxylase (Enterococcus faecalis) (UniProt Q8KXD2)
Sequence (Q8KXD2 as listed by the source): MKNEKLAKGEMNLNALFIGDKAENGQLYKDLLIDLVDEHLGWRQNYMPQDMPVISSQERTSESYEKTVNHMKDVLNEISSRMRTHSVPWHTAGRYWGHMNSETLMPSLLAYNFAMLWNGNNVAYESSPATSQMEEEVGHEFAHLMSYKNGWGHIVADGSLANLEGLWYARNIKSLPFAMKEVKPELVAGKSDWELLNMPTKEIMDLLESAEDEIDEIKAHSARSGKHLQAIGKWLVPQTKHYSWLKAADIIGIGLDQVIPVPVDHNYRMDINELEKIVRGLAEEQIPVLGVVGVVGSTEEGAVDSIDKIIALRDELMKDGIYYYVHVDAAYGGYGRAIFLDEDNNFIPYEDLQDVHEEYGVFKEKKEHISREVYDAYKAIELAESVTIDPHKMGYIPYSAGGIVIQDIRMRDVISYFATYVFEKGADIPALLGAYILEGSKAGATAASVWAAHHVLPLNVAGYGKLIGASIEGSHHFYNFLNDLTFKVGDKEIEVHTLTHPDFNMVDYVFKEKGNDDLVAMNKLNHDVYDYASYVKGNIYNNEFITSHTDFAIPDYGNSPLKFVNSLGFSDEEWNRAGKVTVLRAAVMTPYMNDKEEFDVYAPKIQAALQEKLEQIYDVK
test-description: Inhibition of Streptococcus faecalis tyrosine decarboxylase assessed as 14CO2 production using 5 mM L-phenylalanine-1-14C as substrate at 5 mM after 30 mins by scintillation counting analysis
Record met whenever inhibition is at 30% or higher; record not met when lower.

Exercise: Please indicate if the recorded inhibition for CC1(C)NC(=O)C(Cc2ccccc2)N1 (racemic) meets or exceeds 30%.
Solution: not met

Exercise: Given CC1(C)NC(=O)[C@H](Cc2c[nH]c3ccccc23)N1 , state whether its inhibition is at least 30%.
Solution: met

Exercise: Is inhibition at least 30%? Consider CC1(C)NC(=O)[C@H](Cc2ccc(O)cc2)N1
Solution: met

Exercise: Reported inhibition reaches at least 30% for CC1(C)NC(=O)C(c2ccccc2)N1 (racemic) ?
Solution: not met

Exercise: Determine whether measured inhibition meets or exceeds 30% for CC1(C)NC(=O)[C@H](Cc2cnc[nH]2)N1
Solution: not met

Reference for the values: ChEMBL document CHEMBL3272345
